- Test system: PANC-1
- TEST DETAILS: SRB colorimetric assay of cell growth and viability, PANC-1
- Format: cell-based, human
- MEASUREMENT CONDITIONS: 48 hours exposure
Quick list: TGI PANC-1 per entry.
Supply the numeric figure in Molar, leaving out any unit text.

{"COMPOUND": "C/C=C1\\NC(=O)[C@H](Cc2ccccc2)NC(=O)[C@@H](C(C)C)NC(=O)[C@@H]([C@@H](C)CC)NC(=O)[C@H](NC(=O)[C@H](NC(=O)[C@H](CCCN)NC(=O)[C@H]2CCCN2C(=O)[C@H](NC(=O)[C@@H](NC(=O)[C@@H](NC(=O)[C@H](NC(=O)CCCC(C)C)[C@H](C)O)[C@@H](C)O)C(C)C)C(C)C)[C@@H](C)CC)[C@@H](C)OC(=O)[C@H](C(C)C)NC1=O [Compound 41, [D-Thr^13]-KF]", "QUANTITY NAME": "TGI PANC-1", "OBSERVED RESULT": "6.76E−06"}

Noted for C/C=C1\NC(=O)[C@H](Cc2ccccc2)NC(=O)[C@@H](C(C)C)NC(=O)[C@@H]([C@@H](C)CC)NC(=O)[C@H](NC(=O)[C@H](NC(=O)[C@H](CCCN)NC(=O)[C@H]2CCCN2C(=O)[C@H](NC(=O)[C@@H](NC(=O)[C@@H](NC(=O)[C@H](NC(=O)Cc2cc(F)cc(F)c2)C(C)C)[C@@H](C)O)C(C)C)C(C)C)[C@@H](C)CC)[C@@H](C)OC(=O)[C@H](C(C)C)NC1=O [Compound 22, [3,5-dFPhAc^14]-KF] : its TGI PANC-1 reads 6.58E−06

* * *

GI50 overview
- System: IGROV-ET
- TEST DETAILS: SRB colorimetric assay of cell growth and viability, IGROV-ET
- Format: cell-based, human
- MEASUREMENT CONDITIONS: 48 hours exposure
Express your answer in nM, writing the number without its unit.

{"MOLECULE": "C/C=C1\\NC(=O)[C@H](Cc2ccccc2)NC(=O)[C@@H](C(C)C)NC(=O)[C@@H]([C@@H](C)CC)NC(=O)[C@H](NC(=O)[C@H](NC(=O)[C@H](CCCN)NC(=O)[C@H]2CCCN2C(=O)[C@H](NC(=O)[C@@H](NC(=O)[C@@H](NC(=O)[C@@H](CC(C)C)NC(=O)CCCC(C)C)[C@@H](C)O)C(C)C)C(C)C)[C@@H](C)CC)[C@@H](C)OC(=O)[C@H](C(C)C)NC1=O [Compound 35, [D-Leu^13]-KF]", "TESTED ON": "IGROV-ET", "GI50 / nM": 684}

Record C/C=C1\NC(=O)[C@H](Cc2ccccc2)NC(=O)[C@@H](C(C)C)NC(=O)[C@@H]([C@@H](C)CC)NC(=O)[C@H](NC(=O)[C@H](NC(=O)[C@H](CCCN)NC(=O)[C@H]2CCCN2C(=O)[C@H](NC(=O)[C@@H](NC(=O)[C@@H](NC(=O)[C@H](NC(=O)CCCC(C)C)[C@H](C)O)[C@@H](C)O)C(C)C)C(C)C)[C@@H](C)CC)[C@@H](C)OC(=O)[C@H](C(C)C)NC1=O [Compound 41, [D-Thr^13]-KF] . Reported GI50: 515
